Data credit: patent US5462861A

tested on: phenylalanine ammonia lyase; test: Phenylalanine ammonia lyase activity under gas; assay type: biochemical; settings: suboptimal enzyme concen.; first value column, head not printed
quantity-measured: effect on phenylalanine ammonia lyase

structure-as-smiles	system	reported-value
[Ne]	phenylalanine ammonia lyase	+15
[Xe]	phenylalanine ammonia lyase	+14

Then there is this compound:
In: May I ask what effect on phenylalanine ammonia lyase has been recorded for `[Kr]` ?
Out: +3
